pIC50: −log10 of the molar value.
Below are pIC50 values for IRAK4 (Homo sapiens (Human), UniProt Q9NWZ3) collected from several publications.

-- ask For `CCC[C@H](N)c1cccc(-c2ccc3cnn(-c4cncc(CO)n4)c3c2)n1` , what is its reported pIC50?
-- reply > 7.00

-- ask What does the data say about its pIC50? Entry: `CC(C)(O)[C@H](F)CNC(=O)c1cnc(-c2ccc3cc(C#N)cnn23)cc1N[C@H]1CC[C@H](c2cn(C(F)F)nn2)CC1`
-- reply 9.00

-- ask Reported pIC50, compound `CCC[C@H](N)c1cccc(-c2cc(CN(C)C)c3cnn(-c4cccc(CO)n4)c3c2)n1` : ____
-- reply > 7.00

-- ask Could you share which pIC50 value was measured for Cn1cc(-c2cccc(-c3ncc(-c4cnn(C)c4)c(NC[C@H]4CC[C@@H](O)C4)n3)c2)cn1 (racemic) ?
-- reply > 7.00

-- ask Which pIC50 is reported for this compound? `CN1CCN([C@H]2CC[C@H](Nc3ncnc4ccc(-c5cncc(O)c5)cc34)CC2)CC1`
-- reply 9.00

-- ask Looking for the measured pIC50 of CC(N)c1cccc(-c2ccc3cnn(-c4cccc(C(C)(C)C(N)=O)n4)c3c2)n1 (stereo not shown) , can you help?
-- reply 6.00 to 7.00

-- ask Please give the measured pIC50 for this compound: `Cc1nnc(-c2cc(-c3cccc([C@H](C)N)n3)cc3c2cnn3-c2cccc(CO)n2)s1`
-- reply > 7.00

-- ask Which pIC50 value belongs to `FC(F)(F)c1ccc2ncnc(O[C@H]3CC[C@H](N4CCOCC4)CC3)c2c1` ?
-- reply ≥ 5.30

-- ask Form field: reported pIC50 of `Cn1cc(-c2cccc(-c3ncc(-c4cnn(C)c4)c(NC45CC(CNS(C)(=O)=O)(C4)C5)n3)c2)cn1`
-- reply > 7.00

-- ask What value of pIC50 has been recorded for this entry: COC(=O)C(N)c1cccc(-c2ccc3cnn(-c4cccc(C)n4)c3c2)n1 (stereo not shown)
-- reply 6.00 to 7.00

* * *

Here, compounds appear alongside IC50 reported for IRAK4 (Homo sapiens (Human)) in the literature.

-- ask Please tell me: IC50 of Cn1cc(-c2cccc(-c3ncc(-c4cnn(C)c4)c(NC4C5CCCC4CC(N)C5)n3)c2)cn1 (stereo not shown) , system IRAK4 (Homo sapiens (Human))?
-- reply < 100 nM

-- ask Short answer please: IC50, IRAK4 (Homo sapiens (Human)), entry CCCC(O)c1cccc(-c2ccc3cnn(-c4cccc(CO)n4)c3c2)n1 (stereo not shown)
-- reply 1000 to 10000 nM

-- ask Item: `Nc1n[nH]cc1-c1cccc(C(=O)Nc2nc(CCC(=O)Nc3ccccc3)cn2-c2ccccc2)c1` Test system: IRAK4 (Homo sapiens (Human)) Read-out: IC50 Value: ?
-- reply > 100 nM

-- ask Lab request: please report IC50 under test system IRAK4 (Homo sapiens (Human)) for `O=C(O)CCc1cn(-c2ccccc2)c(NC(=O)c2cccc(-c3cn[nH]c3)c2)n1`
-- reply < 50 nM

* * *

Multi-source literature compilation: IC50 on IRAK4 (Homo sapiens (Human), UniProt Q9NWZ3).
With a cut-off of 0.03 µM, any IC50 strictly below it is called met; any IC50 meeting it or above is called not met.

-- ask I wonder whether OC[C@H]1C[C@@H](Nc2nc(NC3CCCNC3)ncc2-c2nc3ccccc3s2)[C@H](O)[C@@H]1O (mixture of isomers) has IC50 below 0.03 µM. Can you tell?
-- reply not met

-- ask Does this compound meet the criterion IC50 < 0.03 µM? `CC(C)(C)OC(=O)N1CCC(n2cc(-c3ccc4[nH]c5ncnc(N[C@H]6CC[C@H](N7CCOCC7)CC6)c5c4c3)cn2)CC1`
-- reply not met

-- ask Take the compound `CC(C)Nc1cc(-c2ccc3cc(C#N)cnn23)ncc1-c1cn(C2CCNCC2)nn1` and say whether its IC50 is less than 0.03 µM.
-- reply met

-- ask Below 0.03 µM on IC50? Entry `CCCc1cn(-c2cnc(-n3ncc4cc(C#N)cnc43)cc2NCC(C)(C)O)nn1`
-- reply not met

-- ask Hello, I'm reviewing records and need to know if IC50 of CC(C)Oc1c(C(=O)Nc2cccn([C@@H]3C[C@@H]3F)c2=O)cn2cc([C@@]34CC[C@@](C)(C3)OC4)nc2c1F (single isomer, unassigned) is below 0.03 µM. Could you check?
-- reply not met

-- ask Please check: IC50 for `CC(=O)N1CCC(N2CC(n3cc(NC(=O)c4cccc(-c5cnn(C(F)F)c5)n4)c(C(F)F)n3)C2)CC1` , strictly under 0.03 µM or not?
-- reply met

-- ask # strict comparison: is reported IC50 < 0.03 µM? input = `CN(CCC1CCN(C(=O)c2ccc(Cl)c(N3CCC(=O)NC3=O)c2)CC1)C[C@H]1CC[C@H](n2cc3cc(NC(=O)c4cccc(C(F)(F)F)n4)c(C(C)(C)O)cc3n2)CC1`
-- reply met

-- ask In plain terms, does `CNC(=O)Cc1cn(-c2ccccc2)c(NC(=O)c2ccccc2)n1` come in under 0.03 µM for IC50?
-- reply not met

* * *

Recorded IC50 for compounds tested on IRAK4 (Homo sapiens (Human)), drawn from a number of studies.

-- ask Quick one: IC50 for `Oc1cncc(-c2ccc3ncnc(N[C@H]4CC[C@H](N5CCC(F)(F)CC5)CC4)c3c2)c1` ?
-- reply < 0.5 nM

-- ask Look up IC50 for this compound: `CN(C)[C@H]1CC[C@H](Oc2ncnc3sc4c(c23)[C@H](CO)CC4)CC1`
-- reply < 5000 nM

-- ask What value of measured IC50 is listed for O=C1CCC(N2C(=O)c3ccc(N4CCC(CN5CCN(Cc6ccc7c(c6)nc(NC(=O)c6cccc(C(F)(F)F)c6)n7[C@H]6CC[C@@H](CO)CC6)CC5)CC4)cc3C2=O)C(=O)N1 (some centres unmarked) ?
-- reply < 30 nM

-- ask # IC50 lookup, item `CC(=O)NCCNc1nc(-c2cccc(-c3cnn(C)c3)c2)ncc1-c1cnn(C)c1`
-- reply 100 to 1000 nM

-- ask Requested read-out: IC50. Entry: Cc1cccc(-n2ncc3ccc(-c4cccc(C(C)N(C)C)n4)cc32)n1 (centres unmarked)
-- reply 100 to 1000 nM

-- ask Field request: IC50 | item: `Cn1cc(-c2cccc(C(=O)Nc3nc(CCCC(=O)NCCC(C)(C)O)cn3-c3ccccc3)c2)cn1`
-- reply < 50 nM

-- ask // lookup IC50 for CN(CCO)C(=O)C1CCc2sc3ncnc(N[C@H]4CC[C@H](N(C)C)CC4)c3c21 (some centres unmarked)
-- reply > 50000 nM

-- ask Look at this compound and give its reported IC50. `C[C@]1(O)CC[C@H](Nc2nc(Nc3cc(C(=O)N[C@@H]4CCCNC4)ns3)nc3ccsc23)CC1`
-- reply ≤ 100 nM

-- ask Please give the measured IC50 for this compound: `CCCn1cc(-c2cnc(-n3ncc4cc(Cl)cnc43)cc2NC2CC2)nn1`
-- reply 11 nM

-- ask Quick check: IC50 of `O[C@H]1CC[C@H](Nc2nc(Nc3cnoc3)nc3ccsc23)CC1` ?
-- reply 100 to 1000 nM

-- ask Need IC50 of `CC(C)(O)[C@H](F)CNC(=O)c1cnc(-c2ccc3cc(C#N)cnn23)cc1N[C@H]1CC[C@H](c2ncn(C(F)F)n2)CC1` , thanks.
-- reply 2 nM

-- ask Please report the recorded IC50 for `CC(C)Nc1cc(Nc2ccc3ncsc3c2)ncc1C(=O)NCC[C@H](C)NC(=O)CC(C)(C)O` .
-- reply 16.2 nM

-- ask For Cn1cc(-c2cccc(-c3ncc(-c4cnn(C)c4)c(NC[C@H]4CCNC[C@H]4O)n3)c2)cn1 (racemic) , what is its reported IC50?
-- reply 100 to 1000 nM

-- ask Suppose we examine the compound `CCC[C@H](N)c1cccc(-c2cc(C#N)c3cnn(-c4cccc(CO)n4)c3c2)n1` ; what IC50 value has been reported?
-- reply < 100 nM

-- ask Entry `Cc1cc(-c2cc(-c3cccc([C@@H](N)CCCO)n3)cc3c2cnn3-c2cccc(CO)n2)nn1C` : reported IC50 = ?
-- reply < 100 nM

-- ask Dear colleague, I am looking for the recorded IC50 of the following compound: CC(C)Nc1c(C(=O)NC(CCO)C2CC2)cnc2ccc(-c3cn[nH]c3)cc12 (centres unmarked)
-- reply 295 nM

-- ask // IC50 lookup, key: `Cn1cc(Nc2nc(N[C@H]3CC[C@H](N4CCOCC4)CC3)c3nc(C(F)F)sc3n2)cn1`
-- reply ≤ 1000 nM

-- ask Dear colleague, I am looking for the recorded IC50 of the following compound: `CC(C)(O)[C@H](F)CNC(=O)c1cnc(Nc2nc3scnc3cc2F)cc1NCC(F)(F)F`
-- reply 2.2 nM

-- ask # query: IC50 of entry `CCCCNc1cc(Nc2ccc3ncsc3c2)ncc1C(=O)NC[C@@H](F)C(C)(C)O`
-- reply 4.8 nM

-- ask I am curious: what IC50 value has been reported for `C=CC(=O)N1CCC[C@H](c2nnc(-c3ccc(NC(=O)c4cccc(-c5ccn[nH]5)n4)nc3)o2)C1` ?
-- reply 9340 nM
